The entries below come with measured MFI values attached.
Target system: T1, human TMEM106B (human, UniProt Q9NUM4 2-274)
T1 construct: full-length, transiently expressed on HEK293 cells, or natively expressed on HeLa, U251 and A549 cells (the cell is named under assay); also the source of the Pepscan peptides; also called huTMEM106B; huTMEM
Measurement notes: FACS A549 1 ug/ml
Observation type: MFI (MFI)

>  <Binder>
TM-28 (antibody, V domains shown) VH: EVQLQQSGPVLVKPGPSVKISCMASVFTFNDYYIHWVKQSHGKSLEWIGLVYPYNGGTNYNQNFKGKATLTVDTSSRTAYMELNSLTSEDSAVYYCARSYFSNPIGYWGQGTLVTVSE VL: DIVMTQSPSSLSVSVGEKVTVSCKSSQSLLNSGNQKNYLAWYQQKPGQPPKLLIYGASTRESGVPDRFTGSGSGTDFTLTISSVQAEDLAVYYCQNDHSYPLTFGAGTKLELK

>  <Observation type>
MFI

>  <Assay value>
2630

$$$$
>  <Binder>
TM-23 (antibody, V domains shown) VH: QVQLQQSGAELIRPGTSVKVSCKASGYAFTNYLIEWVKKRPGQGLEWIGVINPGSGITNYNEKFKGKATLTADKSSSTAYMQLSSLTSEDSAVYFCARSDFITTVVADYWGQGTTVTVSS VL: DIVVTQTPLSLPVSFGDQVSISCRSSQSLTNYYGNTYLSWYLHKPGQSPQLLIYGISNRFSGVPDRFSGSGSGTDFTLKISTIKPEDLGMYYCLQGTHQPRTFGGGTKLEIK

>  <Observation type>
MFI

>  <Assay value>
398

$$$$
>  <Binder>
TM-15 (antibody, V domains shown, mouse IgG (hybridoma)) VH: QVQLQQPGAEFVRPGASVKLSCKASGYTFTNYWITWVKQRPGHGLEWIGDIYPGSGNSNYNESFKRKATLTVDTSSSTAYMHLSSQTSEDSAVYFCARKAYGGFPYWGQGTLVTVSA VL: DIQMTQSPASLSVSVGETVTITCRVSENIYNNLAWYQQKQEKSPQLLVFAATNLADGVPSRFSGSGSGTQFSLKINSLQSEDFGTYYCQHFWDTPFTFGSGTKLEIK

>  <Observation type>
MFI

>  <Assay value>
650

$$$$
>  <Binder>
TM-26 (antibody, V domains shown) VH: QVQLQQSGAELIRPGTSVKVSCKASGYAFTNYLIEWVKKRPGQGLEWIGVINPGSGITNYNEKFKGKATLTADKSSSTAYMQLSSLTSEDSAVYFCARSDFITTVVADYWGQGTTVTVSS VL: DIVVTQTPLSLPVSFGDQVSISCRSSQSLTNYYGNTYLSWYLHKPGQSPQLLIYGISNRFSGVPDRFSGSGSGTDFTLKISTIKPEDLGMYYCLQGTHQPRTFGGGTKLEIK

>  <Observation type>
MFI

>  <Assay value>
380

$$$$
>  <Binder>
TM-22 (antibody, V domains shown) VH: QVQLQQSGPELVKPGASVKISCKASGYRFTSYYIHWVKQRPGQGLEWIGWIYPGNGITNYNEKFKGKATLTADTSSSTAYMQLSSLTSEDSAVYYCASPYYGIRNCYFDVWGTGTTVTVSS VL: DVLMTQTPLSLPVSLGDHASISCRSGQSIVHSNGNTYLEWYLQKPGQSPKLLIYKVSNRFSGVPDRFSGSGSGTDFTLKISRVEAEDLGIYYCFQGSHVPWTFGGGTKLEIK

>  <Observation type>
MFI

>  <Assay value>
399

$$$$
